- experiment: Cell viability assay (CellTiter Glo) in a panel of cell lines;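 note: percent of DMSO-treated control cells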
- Format: cell-based, human
- condition.label: human, HCC-364 cells, HCC-364; log10 conc -6.50446 mol/l
property.label: viability at 0.313 µM (%)
Enter your answer as a number in %; do not include the unit.

Bench note: what viability at 0.313 µM did Cc1ncsc1-c1ccc(C(CCC(C)CCN2CCC(c3ccc4c(c3)n(C3CCCC3)c3nc(=O)c5c(Br)cccc5n43)CC2)NC(=O)C2CC(O)CN2C(=O)C(NC(=O)C2(F)CC2)C(C)(C)C)cc1 (stereo not shown) [ACBI2] show?
20.4

###

- experiment: Microsomal stability
- Assay type: in vitro ADME
- condition.label: human liver microsomes
Mic. Stab. Human values for the molecules below.
Write the number in % QH without appending the unit.

// known answers, use as guide
>  <molecule>
Cc1ncsc1-c1ccc([C@@H](COCCN2CCC(c3ccc4c(c3)n(C3CCCC3)c3nc(=O)c5c(Br)cccc5n43)CC2)NC(=O)[C@@H]2C[C@@H](O)CN2C(=O)[C@@H](NC(=O)C2(F)CC2)C(C)(C)C)cc1

>  <result.number>
59

$$$$
>  <molecule>
Cc1ncsc1-c1ccc(CNC(=O)[C@@H]2C[C@@H](O)CN2C(=O)[C@@H](NC(=O)C2(F)CC2)C(C)(C)C)c(OCCN2CCC(c3ccc4c(c3)n(C3CCCC3)c3nc(=O)c5c(Br)cccc5n43)CC2)c1

>  <result.number>
89

$$$$
>  <molecule>
Cc1ncsc1-c1ccc([C@H](COC(C)CN2CCC(c3ccc4c(c3)n(C3CCCC3)c3nc(=O)c5c(Br)cccc5n43)CC2)NC(=O)[C@@H]2C[C@@H](O)CN2C(=O)[C@@H](NC(=O)C2(F)CC2)C(C)(C)C)cc1 (stereo partly shown)

>  <result.number>
55

$$$$
>  <molecule>
Cc1ncsc1-c1ccc([C@H](COCCCN2CCC(c3ccc4c(c3)n(C3CCCC3)c3nc(=O)c5c(Br)cccc5n43)CC2)NC(=O)[C@@H]2C[C@@H](O)CN2C(=O)[C@@H](NC(=O)C2(F)CC2)C(C)(C)C)cc1

>  <result.number>
43

$$$$

Field request: Mic. Stab. Human | item: "Cc1ncsc1-c1ccc([C@H](COC(C)(C)CN2CCC(c3ccc4c(c3)n(C3CCCC3)c3nc(=O)c5c(Br)cccc5n43)CC2)NC(=O)[C@@H]2C[C@@H](O)CN2C(=O)[C@@H](NC(=O)C2(F)CC2)C(C)(C)C)cc1"
57

###

# PPB fu 10% Calf annotations
- experiment: Plasma protein binding
- Assay type: in vitro ADME
- condition.label: 10% calf; fraction unbound
# output: bare number, implied unit %

>  <smiles.record>
Cc1ncsc1-c1ccc([C@H](CCCCN2CCC(c3ccc4c(c3)n(C3CCCC3)c3nc(=O)c5c(Br)cccc5n43)CC2)NC(=O)[C@@H]2C[C@@H](O)CN2C(=O)[C@@H](NC(=O)C2(F)CC2)C(C)(C)C)cc1

>  <units.symbol>
%

>  <PPB fu 10% Calf>
0.7

$$$$

Could you tell me which PPB fu 10% Calf is on file for "Cc1ncsc1-c1ccc([C@H](COC(C)(C)CN2CCC(c3ccc4c(c3)n(C3CCCC3)c3nc(=O)c5c(Br)cccc5n43)CC2)NC(=O)[C@@H]2C[C@@H](O)CN2C(=O)[C@@H](NC(=O)C2(F)CC2)C(C)(C)C)cc1" ?
2

###

Below, each entry is listed with its recorded Papp A→B at 1 µM.
- experiment: Bidirectional permeability measurement in Caco-2 cells
- Assay type: in vitro ADME
- condition.label: human, Caco-2, pH 7.4, Caco-2, a to b; read-out: Caco-2 Pab
Answer format: numeric, ×10⁻⁶ cm/s implied, no suffix.

>  <smiles.record>
O=c1nc2n(C3CCCC3)c3cc(C4CCNCC4)ccc3n2c2cccc(Br)c12

>  <Papp A→B at 1 µM / ×10⁻⁶ cm/s>
2.55

$$$$

Could you now look at the following compound, please?
# query: Papp A→B at 1 µM of entry "Cc1ncsc1-c1ccc([C@H](CC[C@H](C)CCN2CCC(c3ccc4c(c3)n(C3CCCC3)c3nc(=O)c5c(Br)cccc5n43)CC2)NC(=O)[C@@H]2C[C@H](O)CN2C(=O)[C@@H](NC(=O)C2(F)CC2)C(C)(C)C)cc1"
3.4

###

- experiment: Pharmacokinetic analyses in mouse
- Assay type: in vivo
- condition.label: mouse, plasma, po, 30 mg/kg, mouse, 30 mg/kg p.o., NCA, individual animals; read-out: AUCinf
property.label: AUC(0-inf) (µM·h)
Write it as a number; the unit µM·h goes unstated.

Which AUC(0-inf) is reported for this compound? Cc1ncsc1-c1ccc(C(CCC(C)CCN2CCC(c3ccc4c(c3)n(C3CCCC3)c3nc(=O)c5c(Br)cccc5n43)CC2)NC(=O)C2CC(O)CN2C(=O)C(NC(=O)C2(F)CC2)C(C)(C)C)cc1 (stereo not shown)
49.5

###

- experiment: Pharmacokinetic analyses in mouse
- Type: in vivo
- condition.label: NMRI, mouse, plasma, iv, 5 mg/kg, NMRI mice, PK study
property.label: MRT (h)
Reply numerically in h, unit not repeated.

>  <compound>
Cc1ncsc1-c1ccc([C@H](CCCCCN2CCC(c3ccc4c(c3)n(C3CCCC3)c3nc(=O)c5c(Br)cccc5n43)CC2)NC(=O)[C@@H]2C[C@@H](O)CN2C(=O)[C@@H](NC(=O)C2(F)CC2)C(C)(C)C)cc1 [compound 11]

>  <result.number>
2.9

$$$$

Now turn to the next compound.
Quick one: MRT for Cc1ncsc1-c1ccc(C(CCC(C)CCN2CCC(c3ccc4c(c3)n(C3CCCC3)c3nc(=O)c5c(Br)cccc5n43)CC2)NC(=O)C2CC(O)CN2C(=O)C(NC(=O)C2(F)CC2)C(C)(C)C)cc1 (centres unmarked) [ACBI2] ?
3.8

###

- experiment: Microsomal stability
- Type: in vitro ADME
- condition.label: human liver microsomes
property.label: Mic. Stab. Human (% QH)
Dear colleague, please return just the value in % QH, with no unit written.

>  <smiles.record>
Cc1ncsc1-c1ccc(CNC(=O)[C@@H]2C[C@@H](O)CN2C(=O)[C@@H](NC(=O)C2(F)CC2)C(C)(C)C)c(OCCOCCOCCN2CCC(c3ccc4c(c3)n(C3CCCC3)c3nc(=O)c5c(Br)cccc5n43)CC2)c1

>  <Mic. Stab. Human, % QH>
87

$$$$

I have this compound here, "Cc1ncsc1-c1ccc(CNC(=O)[C@@H]2C[C@@H](O)CN2C(=O)[C@@H](NC(=O)C2(F)CC2)C(C)(C)C)c(OCCOCCOCCOCCN2CCC(c3ccc4c(c3)n(C3CCCC3)c3nc(=O)c5c(Br)cccc5n43)CC2)c1" , and I need its recorded Mic. Stab. Human.
83

Would you kindly repeat that for "Cc1ncsc1-c1ccc([C@H](CCCCN2CCC(c3ccc4c(c3)n(C3CCCC3)c3nc(=O)c5c(Br)cccc5n43)CC2)NC(=O)[C@@H]2C[C@@H](O)CN2C(=O)[C@@H](NC(=O)C2(F)CC2)C(C)(C)C)cc1" ?
25

Same for "Cc1ncsc1-c1ccc([C@H](COCCN2CCC(c3ccc4c(c3)n(C3CCCC3)c3nc(=O)c5c(Br)cccc5n43)CC2)NC(=O)[C@@H]2C[C@@H](O)CN2C(=O)[C@@H](NC(=O)C2(N(C)C)CC2)C(C)(C)C)cc1"
86

###

- experiment: Pharmacokinetic analyses in mouse
- Assay type: in vivo
- condition.label: NMRI, mouse, plasma, po, 30 mg/kg, NMRI mice, PK study
- Experimental: Compound concentrations in plasma aliquots were measured by quantitative HPLC-MS/MS using an internal standard. Calibration and quality control samples were prepared using blank plasma from untreated animals. Samples were precipitated with acetonitrile and injected into a HPLC system (Agilent 1200). […] Chromatograms were analyzed with Analyst (SCIEX) and pharmacokinetic parameters were calculated by non-compartmental analysis using BI-proprietary software.
property.label: MRT (h)
Please reply with the bare figure in h and do not write the unit itself.

>  <molecule>
Cc1ncsc1-c1ccc([C@H](CCCCCN2CCC(c3ccc4c(c3)n(C3CCCC3)c3nc(=O)c5c(Br)cccc5n43)CC2)NC(=O)[C@@H]2C[C@@H](O)CN2C(=O)[C@@H](NC(=O)C2(F)CC2)C(C)(C)C)cc1

>  <result.number>
5

$$$$

Could you now consider this next molecule?
I would be grateful if you could share the reported MRT for Cc1ncsc1-c1ccc(C(CCC(C)CCN2CCC(c3ccc4c(c3)n(C3CCCC3)c3nc(=O)c5c(Br)cccc5n43)CC2)NC(=O)C2CC(O)CN2C(=O)C(NC(=O)C2(F)CC2)C(C)(C)C)cc1 (centres unmarked) .
6.1

###

- System: NCI-H1568 cells
- experiment: Cell viability assay (CellTiter Glo) in NCI-H1568
- Assay type: cell-based, human
- condition.label: Homo sapiens, NCI-H1568, 18 h; CellTiter Glo; individual replicates; read-out: NCI-H1568 (18h) CTG
pIC50: −log10 of the molar value.
property.label: pIC50

Data request, read-out pIC50, for "Nc1cccc2c1c(=O)nc1n(C3CCCC3)c3ccccc3n21"
< 5.00
